The origin of these recorded values is PubChem BioAssay (NCI).

System: HCT-116 colon
Assay Remarks: NCI-60 one-dose screen, 48 h
Condition Label: 10 µM unless noted
This is part of a sample that, as a whole, favours compounds with a hit. Of some 83,000 tested, about 20% had one in any assay. Activity calls are given as the source filed them. How the source made its calls: active means growth percent below 10; inactive means the rest.
# output must be one of active, inactive

What did this assay record as the result for N#C/C(=C\c1ccc(-c2ccc(F)cc2)o1)C(=O)Nc1ncc(Cc2ccc(Cl)cc2Cl)s1 ?
active

How was Cc1ccc(NC(=O)N[C@@H](Cc2cc(F)cc(F)c2)C(=O)NC2C(=O)N3CCC[C@H]3C(=O)N3CCCC[C@H]3C(=O)N[C@@H](C)C(=O)N3C[C@H](C)C[C@H]3C(=O)O[C@H]2C)c(F)c1 (stereo partly specified) classified in this test?
active

Short answer needed: outcome of this test for O=C(N/N=C\c1ccc(Cl)cc1)c1ccc2nc(-c3ccc(Br)cc3)[nH]c2c1 ?
active

Outcome logged for CN1C(=O)N(C)C2Nn3c(s/c(=C\c4ccccn4)c3=O)=NC21 (stereo unspecified) in this assay:
inactive

Short answer needed: outcome of this test for Cc1cc(-c2ccc3nc(N)sc3c2)nc2ccc3[nH]ncc3c12 ?
inactive

Answer briefly: the call reported for CN1CCN(c2ccc3c(C(N)=O)c(NC(=O)c4ccc(C(C)(C)C)cc4)sc3c2)CC1 in this assay.
inactive

Outcome? C#CCOc1ccc(/C=N/Nc2nc(-c3cc(Cl)ccc3Cl)cs2)cc1
inactive

Answer briefly: the call reported for CCC(CC)N1C(=O)/C(=c2\sc3n(c2=O)C2C(NN=3)N(CC)C(=O)N2CC)c2ccccc21 (stereo unspecified) in this assay.
inactive

For COc1c([C@@H](CC(C)C)OC(C)=O)ccc2c1C(=O)OCc1cc(C)cc(O)c1O2 , which call appears in the assay record?
inactive

Name the outcome recorded for C=CCn1c(SCC(=O)Nc2cccc(C(=O)/C=C/c3ccc(OC)c(OC)c3)c2)nc2ccccc2c1=O in the assay.
inactive

How was COc1cc2c3c(n(CCCNCC4CC4)c(=O)c2cc1OC)-c1cc2c(cc1C3=O)OCO2 classified in this test?
active

* * *

Tested on: DU-145 prostate
Assay Remarks: NCI-60 one-dose screen, 48 h (100 = growth as untreated, 0 = no growth, -100 = all killed)
Condition Label: 10 µM unless noted
This is part of a sample that, as a whole, favours compounds with a hit. Of some 83,000 tested, about 20% had one in any assay.
Mark not met for growth values under 70%, and met for everything at or above.

Exam item: decide whether the reported growth for O=S(=O)(NCCCNc1nccc(-n2cnc3ccccc32)n1)c1ccc(F)cc1 is at least 70%.
met

Decide: growth of O=C1Nc2ccc(Br)cc2/C1=N\c1nnc(-c2ccc(Cl)cc2)o1 >= 70%?
met

State whether the measured growth reaches 70%, counting equality as reaching it, for CN1CCN(Cc2ccc(NC(=O)c3cncc(C#Cc4cnc5ccc(NC6CCOCC6)nn45)c3)cc2C(F)(F)F)CC1
not met

growth >= 70% for COc1cc(O)c2c(c1)[C@H]1O[C@@H]1C[C@H](O)[C@H](O)C(=O)/C=C\C[C@H](C)OC2=O ?
not met

Given C=C(C)[C@@H]1CC[C@]2(C)[C@H](CC=C3[C@@H]4CC(C)(C)CC[C@]4(C(=O)NCC#CCN4CCN(C)CC4)CC[C@]32C)[C@@]1(C)CCC#N , state whether its growth is at least 70%.
not met

Please check the record Cn1cc(-c2nn3cc(-c4ccncc4)nc3s2)c2cc(Cl)ccc21 and state if its growth is at or above 70%.
met

Answer whether growth of O=C1Nc2cc(OC(F)(F)F)ccc2Oc2ccc(-c3ccnc(N4CCNCC4)c3)cc21 is greater than or equal to 70%.
not met

Is growth for NS(=O)(=O)c1ccc(Nc2nc(N/N=C/c3ccc(C(F)(F)F)cc3)nc(Nc3ccccc3)n2)cc1 at or above 70%?
not met

Given CN(C)CCn1c2ccc(N)cc2c2nc3ccccc3nc21 , state whether its growth is at least 70%.
not met

Does O=C(CSc1nnc(-c2ccc(Cl)cc2)n1-c1ccccc1)Nc1ccc(F)cc1 have a reported growth of at least 70%?
met
